- Measured on: human plasma kallikrein (Homo sapiens)
- Sequence (P03952 391-638 limits assumed): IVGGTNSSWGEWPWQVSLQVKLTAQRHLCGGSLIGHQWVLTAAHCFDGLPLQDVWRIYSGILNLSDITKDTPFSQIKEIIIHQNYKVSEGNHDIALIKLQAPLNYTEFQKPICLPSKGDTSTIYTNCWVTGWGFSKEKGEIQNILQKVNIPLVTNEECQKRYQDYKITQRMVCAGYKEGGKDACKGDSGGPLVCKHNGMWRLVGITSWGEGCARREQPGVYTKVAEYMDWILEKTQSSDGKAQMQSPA
- Sequence (P03952 20-390 partner limits assumed): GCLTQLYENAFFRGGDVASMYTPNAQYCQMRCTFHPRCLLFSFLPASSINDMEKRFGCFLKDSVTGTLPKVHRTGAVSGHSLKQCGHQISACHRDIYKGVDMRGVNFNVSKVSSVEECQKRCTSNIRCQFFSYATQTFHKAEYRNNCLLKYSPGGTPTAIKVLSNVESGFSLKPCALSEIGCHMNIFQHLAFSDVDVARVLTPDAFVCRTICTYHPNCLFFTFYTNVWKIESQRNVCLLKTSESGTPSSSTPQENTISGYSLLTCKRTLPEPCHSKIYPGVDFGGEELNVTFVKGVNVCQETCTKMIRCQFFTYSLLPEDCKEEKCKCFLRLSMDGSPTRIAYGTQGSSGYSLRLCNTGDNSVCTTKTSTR
- Protocol text: Kallikrein inhibition assay utilizing a quenched AMC peptide substrate (FLINT)
- Test context: 30 min preincubation, 50 μM Z-Gly-Pro-Arg-AMC, 2 nM kallikrein
Quantity name: IC50 (nM)
Supply the numeric figure in nM, leaving out any unit text.

Worked cases, answers included:
Molecule	IC50, nM
O=C1NC2(CC2)Cc2ccc(Cl)c(F)c2-c2cc(=O)n3c(c21)CC[C@@H]3c1ncc(-c2ccc3[nH]cnc3c2)[nH]1 (stereo in doubt)	60
O=C1NC2(CC2)Cc2ccc(Cl)c(F)c2-c2cc(=O)n([C@@H](CC3CC3)c3ncc(-c4ccncc4)[nH]3)cc21 (single isomer, unassigned)	1390

# context switch: different molecule, same IC50
Ask: So what's the measured IC50 for this one? O=C1NC2(CC2)Cc2ccc(Cl)c(F)c2-c2cc(=O)n3c(c21)CC[C@@H]3c1ncc(-c2ccc3snnc3c2)[nH]1 (stereo in doubt)
Reply: 330
